The reported numbers originate from the supplement of paper PMC10567573.

B1: PWWP2B (parent)
chain: TIRLRPRQVLCEKCKSTLSPPEAS

Variants of: B1
assay.overview: protein stability index of a GFP-peptide fusion (GPS, HEK-293T) (PSI 1-6); higher = more stable;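 note: lentivirally expressed fusions sorted by FACS into six bins by GFP to DsRed ratio, PSI derived from sequencing read proportions per bin multiplied by bin number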
conditions.used: c terminus: a fixed tail appended
property.measured: protein stability index
One number for each entry.

Example variants with recorded protein stability index:
In [3]: df
Out[3]:
   mutations  numeric_value
0       P21C           2.72
1        R7S           3.01
2       S16K           3.09
3       T17A           3.33
4        L4H           3.23
5        V9K           2.85
6        L4K           3.58
7        L4R           3.03

Batch of 8 variants: report protein stability index for each.
1. E12R
2. T17F
3. L18C
4. L10C
5. L18V
6. S19I
7. S16I
8. R5F

Result ::
1. 3.08
2. 2.56
3. 3.15
4. 3.21
5. 3.18
6. 3.35
7. 2.66
8. 3.19

Could you tell me protein stability index for each of these variants? They are listed below.
1. L4Y
2. P6H

Result ::
[2.87, 2.77]

Fill in protein stability index for each of the 7 variants listed.
1. T1I
2. R7H
3. A23T
4. P6A
5. P21N
6. S19A
7. R7A

Result ::
1: 2.44; 2: 3.1; 3: 2.99; 4: 2.76; 5: 2.95; 6: 3.02; 7: 3.48

Hello, I would appreciate it if you could give protein stability index for each entry below.
1. T1N
2. S16V

Result ::
1: 3.63; 2: 2.61

Each variant below has a recorded value; state its protein stability index.
1. L4D
2. L18G
3. R5M
4. P6E

Result ::
1: 4.18; 2: 3.7; 3: 3.22; 4: 3.8

Please go through the list and note protein stability index for each variant.
1. P20A
2. E12T
3. T1K
4. V9I
5. R3Q
6. R3P

Result ::
2.79
2.82
2.98
3
3.61
3.81

Hi! Can you tell me protein stability index for each of these variants?
1. R5V
2. R7P
3. P21R
4. R3D
5. P6V

Result ::
1: 3.52; 2: 3.33; 3: 2.72; 4: 3.82; 5: 2.19

Go through the list and state protein stability index for each entry.
1. Q8D
2. R3A
3. L4E
4. T17G
5. K13Y

Result ::
1: 3.49; 2: 3.69; 3: 3.79; 4: 2.82; 5: 2.24
